experiment: chemical genetic growth profiling, strain panel (AID 1159580);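 note: tested at 20 µM; growth read once vehicle control cultures reached saturation at 30 °C; lower values mean less growth of the strain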; details: S. cerevisiae deletion strains, growth OD, locus YOR083W, strain WHI5
Screen size: about 5,500 compounds; about 2,000 (36%) were called active. Roughly 18% stayed inconclusive and do not appear here. Cut-off read from the data, not from the text of the source: active = normalized growth mostly below about 0.91 (no sharp cut-off); inconclusive = no clear call, values can overlap the other calls; inactive = mostly above about 0.92. The list shows a part of the results.
Allowed answers: active, inactive

The examples below pair each entry with its known result.
Q: // outcome(item) with item = COc1ccc(-c2cc(=O)c3c(OC(C)=O)cc(OC(C)=O)cc3o2)cc1
Result: inactive

Q: Query: recorded result category for CCC(CCC(C)[C@H]1CCC2C3CC=C4C[C@@H](O)CC[C@]4(C)C3CC[C@@]21C)C(C)C (some centres not stated) in this test
Result: inactive

Q: Lab log entry: CCN(CC)CCNc1ccc(CO)c2sc3ccccc3c(=O)c12 — outcome as called in the assay?
Result: inactive

Q: Tell me the assay call for COc1ccc(-c2cc(=O)c3cc(OC)ccc3o2)cc1 please.
Result: inactive

Q: Short answer needed: outcome of this test for COc1ccc(-c2cc(=O)c3c(OC)c(OC)c(OC)c(OC)c3o2)cc1 ?
Result: active

More entries:
Q: Hi, do you know how CC(C)c1ccc2c(c1O)CC[C@H]1C3=C(CC[C@]21C)C(=O)OC3 came out in this test?
Result: inactive

Q: For NC(=O)CC[C@@H](N)C(=O)O , which call appears in the assay record?
Result: inactive
